Values of pKi reported for Adenosine receptor A1 (Rattus norvegicus, UniProt P25099) appear below.
pKi: −log10 of the molar value.

- smiles_text: "CCn1c(=O)c2c(nc(COc3ccccc3)n2CC)n(CC)c1=O"
  tested_target: "Adenosine receptor A1 (Rattus norvegicus, UniProt P25099)"
  pKi: 6.40
- smiles_text: "CCn1c(=O)c2c(nc(CCCc3ccccc3)n2CC)n(CC)c1=O"
  tested_target: "Adenosine receptor A1 (Rattus norvegicus, UniProt P25099)"
  pKi: 6.68
- smiles_text: "CCn1c(=O)c2c(nc(CCc3ccccc3)n2CC)n(CC)c1=O"
  tested_target: "Adenosine receptor A1 (Rattus norvegicus, UniProt P25099)"
  pKi: 6.12
